- Tested System: T1, human CD4 on cells (SKW3 cells; human PBMCs) (human, UniProt P01730 26-458)
- T1 construct: whole, on cells; SKW3 CD4 knockout cells served as the negative cell line; also called hCD4
- Method Notes: FACS binning on SKW3 cells pre-incubated with supernatant; competitor OKT4-A488, its signal read; background 2163, max binding 8200
Readout Type: SKW3 FACS Binning OKT4 A488
Could you keep your reply to the number by itself?

75110_02I16A (antibody, IgG1, V domains shown, Tested as non-clonal AlivaMab Mouse Kappa hybridoma supernatant: human variable domains and human kappa, mouse Fc; also called 75110_02116A) VH: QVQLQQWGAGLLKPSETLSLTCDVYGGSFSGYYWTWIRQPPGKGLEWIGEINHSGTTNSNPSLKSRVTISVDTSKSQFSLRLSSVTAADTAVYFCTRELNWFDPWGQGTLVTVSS VL: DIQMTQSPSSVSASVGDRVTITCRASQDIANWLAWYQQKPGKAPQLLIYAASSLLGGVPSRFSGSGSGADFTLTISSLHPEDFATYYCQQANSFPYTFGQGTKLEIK
9810

From here, focus on the item given below.
Q: Reported SKW3 FACS Binning OKT4 A488 for 75110_07B16A (antibody, IgG1, V domains shown, Tested as non-clonal AlivaMab Mouse Kappa hybridoma supernatant: human variable domains and human kappa, mouse Fc) VH: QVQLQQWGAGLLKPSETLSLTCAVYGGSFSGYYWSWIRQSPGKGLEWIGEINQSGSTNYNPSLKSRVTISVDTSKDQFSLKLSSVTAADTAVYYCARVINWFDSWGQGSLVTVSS VL: DIQMTQSPSSVSASVGDRVTITCRASQGISSWLAWYQQKPGKAPKLLIYDASSFQSGVPSRFSGSGSGTDFTLTISSLQTDDFATYYCQQANSFPYTFGQGTKLEIK : what is it?
Ans: 9280
